- TEST_TARGET: chemokine receptors on THP-1 cells
- PROTOCOL_TEXT: binding to chemokine receptors on THP-1 cells; printed as Ka in concentration units
ASSAY_ENDPOINT: Kd

Query: May I ask what Kd has been recorded for SYRRITSSKCPKEAV [Peptide 2(1-15)[MCP-1]] ?
Response: 300 nM
